Biological target: T1, huUHRF1-PHD(296–367), PHD finger of human UHRF1 with the additional N-terminal zinc finger (human, UniProt Q96T88 296-367)
T1 construct: Vector pHGGWA (Gateway); also called ICBP90 PHD finger
T1 sequence (looked up): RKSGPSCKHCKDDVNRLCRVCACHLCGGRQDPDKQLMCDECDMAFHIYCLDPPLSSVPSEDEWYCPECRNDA
Assay: ITC; 20°C; histone peptides (1–12Y, 1.5–2 mM) injected into huUHRF1-PHD (0.12–0.18 mM); 20 mM Tris pH 7, 150 mM NaCl, 0.5 mM TCEP, 25 µM ZnCl2, 0.1 mM PMSF
Conditions: both partners purified
pKd: −log10 of the molar value. Where no end group is shown, it is not given here. Me3 = trimethyl-lysine
assayReadout: pKd

| binder | assayReadout | measurement |
| --- | --- | --- |
| ARTK(Me3)QTARKSTGY (histone H3 N-terminal tail, residues 1-12; tyrosine after residue 12, read from the label '1–12Y'; also called H3K4me3) [histone H3 peptide (1–12Y) with trimethylated K4] | pKd | 4.59 |
| ARTAQTARKSTGY (histone H3 N-terminal tail, residues 1-12 with K4A; tyrosine after residue 12, read from the label '1–12Y'; also called H3K4A) [histone H3 peptide (1–12Y) with K4 mutated to alanine] | pKd | 4.77 |
| ARTKQTARKSTGY (histone H3 N-terminal tail, residues 1-12; tyrosine after residue 12, read from the label '1–12Y'; also called unmodified H3; H3K4me0) [histone H3 peptide (1–12Y), unmodified] | pKd | 5.10 |
